Test system: HCT-116 colon carcinoma
assay procedure: Cell Proliferation Inhibition Assay, HCT-116 (14C-thymidine)
Assay type: cell-based
experimental context: Homo sapiens, HCT-116 cell proliferation
Listing of recorded pIC50 by entry.
Schema: pIC50 number; meaning minus log10 of the concentration expressed in molar units.

Sample records with pIC50:
O=C(Nc1ccc(CN2CCOCC2)cc1)c1sc2ncnc3c2c1NC(=O)N3c1ccc(OCc2ccccn2)c(Cl)c1 4.00
COc1ccc(NC(=O)c2sc3ncnc4c3c2NC(=O)N4c2ccc(OCc3ccccn3)c(Cl)c2)cc1OC 4.52
CCOC(=O)c1sc2ncnc3c2c1NC(=O)N3c1ccc2c(cnn2Cc2cccc(F)c2)c1 4.00

Input: Quick one: pIC50 for "O=C(O)c1sc2ncnc3c2c1NC(=O)N3c1ccc(OCc2ccccn2)c(Cl)c1" ?
Output: 4.00

Input: Quick one: pIC50 for "O=C(NCCCN1CCOCC1)c1sc2ncnc3c2c1NC(=O)N3c1ccc2c(ccn2Cc2cccc(F)c2)c1" ?
Output: 5.00

Input: Quick one: pIC50 for "O=C(NCCN1CCOCC1)c1sc2ncnc3c2c1NC(=O)N3c1ccc2c(ccn2Cc2cccc(F)c2)c1" ?
Output: 5.00

Input: Quick one: pIC50 for "CN1CCC(NC(=O)c2sc3ncnc4c3c2NC(=O)N4c2ccc3c(ccn3Cc3cccc(F)c3)c2)CC1" ?
Output: 5.36

----------
Listing of recorded IC50 by entry.
target desc: EGFR (Homo sapiens, UniProt P00533)
Construct: The intracellular portion of EGFR started at nucleotide 2189 (corresponding to amino acid 667) and ended at the termination codon
Sequence (P00533 669-1210 limits assumed): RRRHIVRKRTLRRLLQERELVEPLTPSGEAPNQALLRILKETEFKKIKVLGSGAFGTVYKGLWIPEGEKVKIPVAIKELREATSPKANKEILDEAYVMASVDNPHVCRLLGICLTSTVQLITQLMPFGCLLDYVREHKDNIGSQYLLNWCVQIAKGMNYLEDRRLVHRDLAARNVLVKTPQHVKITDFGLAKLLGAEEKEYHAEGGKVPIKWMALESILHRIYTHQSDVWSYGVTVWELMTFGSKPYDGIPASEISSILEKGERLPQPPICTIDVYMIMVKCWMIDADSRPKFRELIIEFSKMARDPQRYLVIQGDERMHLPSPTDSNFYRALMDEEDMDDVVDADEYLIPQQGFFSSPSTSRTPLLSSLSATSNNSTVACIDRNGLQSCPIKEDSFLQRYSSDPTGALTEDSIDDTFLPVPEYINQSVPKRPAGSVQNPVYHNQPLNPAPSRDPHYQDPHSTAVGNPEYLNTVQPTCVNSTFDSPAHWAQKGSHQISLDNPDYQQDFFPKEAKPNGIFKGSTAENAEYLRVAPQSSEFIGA
assay procedure: EGFR Kinase Assay
experimental context: GST-EGFR, ATP 5 μM
Provide the reading as a plain figure in nM.

Sample records with IC50:
compound	result number
O=C(Nc1cccc(CN2CCOCC2)c1)c1sc2ncnc3c2c1NC(=O)N3c1ccc(Oc2ccccc2)cc1 [Cpd 220]	141
O=C(Nc1ccc(CCN2CCCCC2)cc1)c1sc2ncnc3c2c1NC(=O)N3c1ccc(Oc2ccccc2)cc1 [Cpd 166]	21
O=C(Nc1ccc(CN2CCCCC2)cc1)c1sc2ncnc3c2c1NC(=O)N3c1ccc2nc(Cc3cccc(F)c3)[nH]c2c1 [Cpd 192]	410
CN1CCN(Cc2ccc(NC(=O)c3sc4ncnc5c4c3NC(=O)N5c3ccc(F)c(Cl)c3)cc2)CC1 [Cpd 14]	43
O=C(Nc1ccc(CN2CCOCC2)cc1)c1sc2ncnc3c2c1NC(=O)N3c1ccc(OCc2cccs2)c(Cl)c1 [Cpd 226]	33

Input: Quick one: IC50 for O=C(O)c1sc2ncnc3c2c1NC(=O)N3c1ccc(Br)cc1F [Cpd 40] ?
Output: 7430

Input: Quick one: IC50 for O=C(Nc1ccc(CN2CCOCC2)cc1)c1sc2ncnc3c2c1NC(=O)N3c1ccc2nc(Cc3cccc(F)c3)[nH]c2c1 [Cpd 193] ?
Output: 704

Input: Quick one: IC50 for Nc1sc2ncnc3c2c1NC(=O)N3c1ccc(F)c(Cl)c1 [Cpd 157] ?
Output: 371

Input: Quick one: IC50 for O=C(Nc1ccc(CN2CCOCC2)cc1)c1sc2ncnc3c2c1NC(=O)N3c1ccc(Oc2cccc(F)c2)c(Cl)c1 [Cpd 162] ?
Output: 26

Input: Quick one: IC50 for O=C(Nc1ccc(CN2CCOCC2)cc1)c1sc2ncnc3c2c1NC(=O)N3c1ccc(Oc2ccccc2)c(F)c1 [Cpd 113] ?
Output: 21

Input: Quick one: IC50 for CN1CCN(Cc2ccc(NC(=O)c3sc4ncnc5c4c3NC(=O)N5c3cccc(Oc4ccccc4)c3)cc2)CC1 [Cpd 199] ?
Output: 155

Input: Quick one: IC50 for O=C(Nc1ccc(CN2CCCCC2)cc1)c1sc2ncnc3c2c1NC(=O)N3c1ccc(OCc2cccs2)c(Cl)c1 [Cpd 227] ?
Output: 19

Input: Quick one: IC50 for COc1cc(NC(=O)c2sc3ncnc4c3c2NC(=O)N4c2ccc(OCc3ccccn3)c(Cl)c2)ccc1OCCN1CCOCC1 [Cpd 86] ?
Output: 83

----------
target desc: EGFR (Homo sapiens)
Construct: The intracellular portion of EGFR started at nucleotide 2189 (corresponding to amino acid 667) and ended at the termination codon; made in house; host or cells: Sf9 insect cells (baculovirus)
assay procedure: EGFR Kinase Assay
Format: biochemical
experimental context: GST-EGFR, ATP 5 μM
Values of IC50 strictly less than 200 nM map to met, and values of at least 200 nM map to not met.

Example results:
molecule	assigned class
O=C(Nc1ccc(CN2CCOCC2)cc1)c1sc2ncnc3c2c1NC(=O)N3c1ccccc1Cl [Cpd 149]	met
CN1CCN(Cc2ccc(NC(=O)c3sc4ncnc5c4c3NC(=O)N5c3ccc(Oc4ccccc4)c(F)c3)cc2)CC1 [Cpd 115]	met
O=C(O)c1sc2ncnc3c2c1NC(=O)N3c1ccc(Oc2ccccc2)c(F)c1 [Cpd 112]	not met

Input: Is IC50 strictly under 200 nM for the entry CC(C)(C)OC(=O)NC1CCN(Cc2ccc(NC(=O)c3sc4ncnc5c4c3NC(=O)N5c3ccc(Oc4ccccc4)cc3)cc2)CC1 [Cpd 258] ?
Output: met

Input: Is IC50 strictly under 200 nM for the entry CN1CCN(NC(=O)c2sc3ncnc4c3c2NC(=O)N4c2ccc(Oc3ccccc3)cc2)CC1 [Cpd 215] ?
Output: met

Input: Is IC50 strictly under 200 nM for the entry O=C(Nc1ccc(CN2CCCCC2)cc1)c1sc2ncnc3c2c1NC(=O)N3c1ccc(Cl)cc1Cl [Cpd 25] ?
Output: met

Input: Is IC50 strictly under 200 nM for the entry COc1cc(NC(=O)c2sc3ncnc4c3c2NC(=O)N4c2ccc(Br)cc2)ccc1CN1CCOCC1 [Cpd 201] ?
Output: met

Input: Is IC50 strictly under 200 nM for the entry COc1ccc(N2C(=O)Nc3c(C(=O)Nc4ccc(OC)c(OC)c4)sc4ncnc2c34)c(F)c1 [Cpd 69] ?
Output: not met

----------
Listing of recorded pIC50 by entry.
target desc: HER-2 (Homo sapiens, UniProt P04626)
Construct: His6 with thrombin site (N)
Sequence (P04626 679-1255): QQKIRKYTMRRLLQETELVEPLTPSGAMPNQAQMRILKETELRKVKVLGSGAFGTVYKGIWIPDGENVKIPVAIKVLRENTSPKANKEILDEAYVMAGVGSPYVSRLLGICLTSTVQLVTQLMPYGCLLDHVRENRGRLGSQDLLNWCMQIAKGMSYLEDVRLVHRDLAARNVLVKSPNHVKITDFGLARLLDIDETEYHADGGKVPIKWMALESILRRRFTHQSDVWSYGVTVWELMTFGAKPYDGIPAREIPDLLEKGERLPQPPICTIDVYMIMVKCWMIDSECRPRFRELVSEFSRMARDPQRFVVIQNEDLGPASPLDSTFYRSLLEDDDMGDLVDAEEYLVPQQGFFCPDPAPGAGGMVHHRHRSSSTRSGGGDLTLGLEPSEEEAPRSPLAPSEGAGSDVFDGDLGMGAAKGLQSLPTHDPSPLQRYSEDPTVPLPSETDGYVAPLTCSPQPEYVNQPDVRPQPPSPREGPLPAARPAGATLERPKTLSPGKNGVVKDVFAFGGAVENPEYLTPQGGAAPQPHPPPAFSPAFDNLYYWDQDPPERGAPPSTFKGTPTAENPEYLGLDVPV
assay procedure: HER-2 Kinase Assay
experimental context: value in parentheses
Schema: pIC50 number; meaning minus log10 of the concentration expressed in molar units.

Sample records with pIC50:
CC(C)(C)OC(=O)NC1CCN(Cc2ccc(NC(=O)c3sc4ncnc5c4c3NC(=O)N5c3ccc(Oc4ccccc4)cc3)cc2)CC1 7.24
O=C(Nc1ccc(CN2CCCCC2)cc1)c1sc2ncnc3c2c1NC(=O)N3c1ccc(Oc2ccccc2)c(Cl)c1 7.05

Input: Quick one: pIC50 for "O=C(Nc1ccc(CN2CCCCC2)cc1)c1sc2ncnc3c2c1NC(=O)N3c1ccc(Cl)cc1Cl" ?
Output: 6.11

Input: Quick one: pIC50 for "CN1CCN(Cc2ccc(NC(=O)c3sc4ncnc5c4c3NC(=O)N5c3ccc(Sc4ccccc4)cc3)cc2)CC1" ?
Output: 7.14

Input: Quick one: pIC50 for "COc1ccc(N2C(=O)Nc3c(C(=O)Nc4ccc(CN5CCOCC5)cc4)sc4ncnc2c34)cc1Br" ?
Output: 5.66

Input: Quick one: pIC50 for "O=C(Nc1ccc(CN2CCOCC2)cc1)c1sc2ncnc3c2c1NC(=O)N3c1ccc(OCc2cccs2)c(Cl)c1" ?
Output: 7.57

----------
Listing of recorded inhibition at 2 µM by entry.
target desc: Lyn kinase (human) (Homo sapiens)
Construct: purchased Upstate Biotechnology, Lake Placid, N.Y
Sequence (P07948 whole entry): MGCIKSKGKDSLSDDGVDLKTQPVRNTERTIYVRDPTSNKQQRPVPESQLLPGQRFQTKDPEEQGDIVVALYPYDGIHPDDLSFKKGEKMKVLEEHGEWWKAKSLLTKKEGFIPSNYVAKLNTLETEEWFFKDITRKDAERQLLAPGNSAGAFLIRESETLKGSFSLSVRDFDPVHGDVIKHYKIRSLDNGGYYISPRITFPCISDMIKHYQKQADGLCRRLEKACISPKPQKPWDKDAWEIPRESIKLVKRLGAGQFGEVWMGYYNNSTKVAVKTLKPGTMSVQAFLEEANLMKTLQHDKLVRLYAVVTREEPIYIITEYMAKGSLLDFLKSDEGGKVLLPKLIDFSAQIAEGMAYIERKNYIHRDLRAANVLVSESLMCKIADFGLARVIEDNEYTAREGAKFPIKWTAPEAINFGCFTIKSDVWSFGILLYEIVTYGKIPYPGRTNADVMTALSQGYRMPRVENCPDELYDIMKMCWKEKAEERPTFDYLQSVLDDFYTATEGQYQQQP
assay procedure: Lyn Kinase Assay
Type: biochemical
experimental context: test concentration of 2 μM
Provide the reading as a plain figure in %.

Sample records with inhibition at 2 µM:
NCCCNC(=O)c1sc2ncnc3c2c1NC(=O)N3c1ccc2c(ccn2Cc2cccc(F)c2)c1 39
O=C(Nc1ccc(CN2CCOCC2)cc1)c1sc2ncnc3c2c1NC(=O)N3c1ccc(Cc2ccccc2)cc1 39

Okay, now this compound:
Input: Checklist item: inhibition at 2 µM tested on Lyn kinase (human) (Homo sapiens), entry "O=C(NCCCO)c1sc2ncnc3c2c1NC(=O)N3c1ccc(Oc2cccc(F)c2)cc1" , value?
Output: 20

----------
target desc: HER-2 (Homo sapiens)
Construct: His6 with thrombin site (N); purchased Proqinase (Freiburg, Germany)
assay procedure: HER-2 Kinase Assay
Format: biochemical
experimental context: value in parentheses
quantity kind: pIC50
Schema: pIC50 number; meaning minus log10 of the concentration expressed in molar units.

CN1CCC(NC(=O)c2sc3ncnc4c3c2NC(=O)N4c2ccc(OCc3cccs3)c(Cl)c2)CC1 6.44
COc1cc(NC(=O)c2sc3ncnc4c3c2NC(=O)N4c2ccc(OCc3ccccn3)c(Cl)c2)ccc1OCCN1CCOCC1 6.46
O=C(NCCN1CCOCC1)c1sc2ncnc3c2c1NC(=O)N3c1ccc2c(ccn2Cc2cccc(F)c2)c1 6.11
O=C(Nc1ccc(CN2CCC(CO)CC2)cc1)c1sc2ncnc3c2c1NC(=O)N3c1ccc(Oc2ccccc2)cc1 7.17
O=C(Nc1ccc(CN2CCOCC2)c(Cl)c1)c1sc2ncnc3c2c1NC(=O)N3c1ccc(Oc2ccccc2)cc1 6.95

Okay, now this molecule:
Input: Quick one: pIC50 for "CN1CCN(Cc2ccc(NC(=O)c3sc4ncnc5c4c3NC(=O)N5c3cccc(Oc4ccccc4)c3)cc2)CC1" ?
Output: 6.21

These entries and their values trace back to patent US7579356B2.
